Biological target: biotinylated CD59 (Homo sapiens)
Construct: Recombinant soluble human CD59 with an additional C-terminal cysteine residue
Sequence (P13987 26-102 limits assumed): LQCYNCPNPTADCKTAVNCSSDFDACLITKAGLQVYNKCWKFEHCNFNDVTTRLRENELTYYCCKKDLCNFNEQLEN
Assay: mRNA-display cyclic peptide screen against CD59-biotin, NGS abundance after 6th selection round
Settings: percentage of the pool averaged across the two sequencing samples, sheet R6
observable: Percentage Average (%)
State the answer as a number, implicitly in %.

Use these answered entries as a reference point.
> print(dat)
   residue.string  reading
1     SAWGSRQIQYY    0.055
2      SKNGLTFLCS    0.024
3     VKYGNSNFVRE    0.054
4     FQYFGTGIAFG    0.313

Dear colleague, I am looking for the recorded Percentage Average of the following sequence: SFAKRVAAQGGC
0.026

Dear colleague, I am looking for the recorded Percentage Average of the following sequence: WRDRFDQCVL
2.407

Dear colleague, I am looking for the recorded Percentage Average of the following sequence: HCWVRGSRSYT
0.022

Dear colleague, I am looking for the recorded Percentage Average of the following sequence: IALGDRTFSFG
0.350

Dear colleague, I am looking for the recorded Percentage Average of the following sequence: CIRGTPTTVWG
0.374

Dear colleague, I am looking for the recorded Percentage Average of the following sequence: AKGNGHFAYG
0.129

====

Percentage of the pool, Seq I by entry:
Molecular target: biotinylated CD59 (Homo sapiens)
Construct: Recombinant soluble human CD59 with an additional C-terminal cysteine residue
Sequence (P13987 26-102 limits assumed): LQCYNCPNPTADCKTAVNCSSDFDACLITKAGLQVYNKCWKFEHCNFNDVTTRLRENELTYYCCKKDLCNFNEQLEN
Assay: mRNA-display cyclic peptide screen against CD59-biotin, NGS abundance after 6th selection round
Details: counts normalised by total counts of NGS sample Seq I, sheet R6
State the answer as a number, implicitly in %.

Use these answered entries as a reference point.
> print(dat)
            residue.string  scale.unit  reading
1              LNPQGHCLLKL           %    0.013
2              HAFGSRDIAYY           %    0.012
3             LWGTRSFTLVRS           %    0.015
4  FIRGNSTSVLFAAAAAAARTGGG           %    0.009

Dear colleague, I am looking for the recorded Percentage of the pool, Seq I of the following sequence: YVRGDLYSVLG
0.009

Dear colleague, I am looking for the recorded Percentage of the pool, Seq I of the following sequence: CYTYRSLDPQSV
0.010

Dear colleague, I am looking for the recorded Percentage of the pool, Seq I of the following sequence: GRVRTCPVIV
0.015

Dear colleague, I am looking for the recorded Percentage of the pool, Seq I of the following sequence: YIRGTQDTFLF
0.011

Dear colleague, I am looking for the recorded Percentage of the pool, Seq I of the following sequence: WAKGSDTFTSG
0.032

Dear colleague, I am looking for the recorded Percentage of the pool, Seq I of the following sequence: CYGGRTFIYSWS
0.011

Dear colleague, I am looking for the recorded Percentage of the pool, Seq I of the following sequence: CLRKTRDILSV
0.015

Dear colleague, I am looking for the recorded Percentage of the pool, Seq I of the following sequence: FIRGNSTSVPF
0.011

====

Target: biotinylated CD59 (Homo sapiens)
Construct: Recombinant soluble human CD59 with an additional C-terminal cysteine residue
Sequence (P13987 26-102 limits assumed): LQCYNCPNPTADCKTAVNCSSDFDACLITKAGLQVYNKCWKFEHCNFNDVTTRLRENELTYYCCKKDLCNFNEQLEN
Assay: mRNA-display cyclic peptide screen against CD59-biotin, NGS abundance after 6th selection round
Conditions: NGS sample Seq I, sheet R6 (6th selection round)
Counts (raw counts for peptide sequence), Seq I strictly less than 50 = 1. Otherwise -1.

> print(dat)
   residue.string  label.value
1     VARGDWNHQFY            1
2     CFAYRTHTTAV           -1
3     SCSEWRRGTRS            1

Lab note: confirm whether the reported Counts (raw counts for peptide sequence), Seq I for this sequence is below 50, equality not counting. sequence: CFSARAIHGSL
1

Lab note: confirm whether the reported Counts (raw counts for peptide sequence), Seq I for this sequence is below 50, equality not counting. sequence: CYGGRTFIYTWS
-1

Lab note: confirm whether the reported Counts (raw counts for peptide sequence), Seq I for this sequence is below 50, equality not counting. sequence: CFRSRAVSNGT
-1

Lab note: confirm whether the reported Counts (raw counts for peptide sequence), Seq I for this sequence is below 50, equality not counting. sequence: SWTRGNRSSVRG
1

Lab note: confirm whether the reported Counts (raw counts for peptide sequence), Seq I for this sequence is below 50, equality not counting. sequence: FIRGNSTSVPF
1

====

Target: biotinylated CD59 (Homo sapiens)
Construct: Recombinant soluble human CD59 with an additional C-terminal cysteine residue
Sequence (P13987 26-102 limits assumed): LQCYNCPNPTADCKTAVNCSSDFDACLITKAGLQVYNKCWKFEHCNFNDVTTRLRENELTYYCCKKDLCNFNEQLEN
Experiment: mRNA-display cyclic peptide screen against CD59-biotin, NGS abundance after 6th selection round
Conditions: counts normalised by total counts of sample Seq II; percentage of the pool, sheet R6
Assign 1 whenever Percentage Seq II does not fall below 0.04%; assign 0 whenever it does.

> print(dat)
   residue.string                     target.entity  label.value
1     CFLYRNNPDSV  biotinylated CD59 (Homo sapiens)            1

Shifting focus to the sequence that follows.
Textbook exercise: given the entry IARGDWNHQFY , state whether its Percentage Seq II is greater than or equal to 0.04%.
1

====

Biological target: biotinylated CD59 (Homo sapiens)
Construct: Recombinant soluble human CD59 with an additional C-terminal cysteine residue
Sequence (P13987 26-102 limits assumed): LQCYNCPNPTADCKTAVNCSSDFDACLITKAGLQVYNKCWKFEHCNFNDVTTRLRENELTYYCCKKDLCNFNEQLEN
Assay: mRNA-display cyclic peptide screen against CD59-biotin, NGS abundance after 6th selection round
Conditions: NGS sample Seq II, sheet R6 (6th selection round)
Counts (raw counts for peptide sequence), Seq II by entry:
Please respond with just the number, no unit label.

Use these answered entries as a reference point.
> print(dat)
   residue.string  reading
1      WRDRFDQCAL        6
2     CFLKRDRSASI        7
3    VLCHRWHVGSHR        7
4     SAWGNRQIKYY        6
5     HVFGNRSFARG        6

Below: the item to evaluate.
Dear colleague, I am looking for the recorded Counts (raw counts for peptide sequence), Seq II of the following sequence: WRDRFGQCVL
7

====

Target: biotinylated CD59 (Homo sapiens, UniProt P13987)
Construct: Recombinant soluble human CD59 with an additional C-terminal cysteine residue
Sequence (P13987 26-102 limits assumed): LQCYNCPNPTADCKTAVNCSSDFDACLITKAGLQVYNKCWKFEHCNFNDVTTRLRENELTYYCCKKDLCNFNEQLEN
Test: mRNA-display cyclic peptide screen against CD59-biotin, NGS abundance after 6th selection round
Settings: average of Seq I and Seq II, sheet R6
Percentage of the pool, averaged across the two sequencing samples by entry:
State the answer as a number, implicitly in %.

Use these answered entries as a reference point.
> print(dat)
    residue.string  scale.unit  reading
 1     HCWVRGSRNHT           %    0.012
 2     CFVGRLTLTST           %    0.011
 3      FRGRNDICTH           %    0.018
 4      WSTRERQISC           %    0.011
 5      RVGSQFCAQL           %    0.014
 6     RCWVRGSRNYT           %    0.010
 7     FIRGDSTSVLF           %    0.013
 8     FVRGDLNSVLG           %    0.014
 9     FVTGNSDHTRG           %    0.011
10     SACGNRQIQYY           %    0.013

Dear colleague, I am looking for the recorded Percentage of the pool, averaged across the two sequencing samples of the following sequence: FVTGNRDHTHG
0.011

Dear colleague, I am looking for the recorded Percentage of the pool, averaged across the two sequencing samples of the following sequence: YLSGSSNFARG
0.014

Dear colleague, I am looking for the recorded Percentage of the pool, averaged across the two sequencing samples of the following sequence: VARGSKDWRWS
0.012

Dear colleague, I am looking for the recorded Percentage of the pool, averaged across the two sequencing samples of the following sequence: SAWGNRQIQYH
0.016

Dear colleague, I am looking for the recorded Percentage of the pool, averaged across the two sequencing samples of the following sequence: HVYGNRSFTRG
0.017

Dear colleague, I am looking for the recorded Percentage of the pool, averaged across the two sequencing samples of the following sequence: ITRGSNIYAYG
0.016

Dear colleague, I am looking for the recorded Percentage of the pool, averaged across the two sequencing samples of the following sequence: SVRGDLYSVLG
0.017

Dear colleague, I am looking for the recorded Percentage of the pool, averaged across the two sequencing samples of the following sequence: CIRGTPTTV
0.010

Dear colleague, I am looking for the recorded Percentage of the pool, averaged across the two sequencing samples of the following sequence: CYGGRTFIYAWL
0.013

Dear colleague, I am looking for the recorded Percentage of the pool, averaged across the two sequencing samples of the following sequence: SAWGNRQIKYY
0.014

These data points were gathered from paper PMC12207370.
